readout: melting point (°C)

For orientation, consider the following solved cases.
O=C(CCCSc1nc2ccccc2n1CC1CCCCC1)NO [Compound 10c] = 149
O=C(CCCSc1nc2ccccc2n1CCC1CCCCC1)NO [Compound 10d] = 132
O=C(CSc1nc2ccccc2n1CCC1CCCCC1)NO = 157
O=C(CSc1nc2ccccc2n1CC1CCCCC1)NO = 160

[I] O=C(CSc1nc2ccccc2n1Cc1ccc(Br)cc1)NO
[II] O=C(CSc1nc2ccccc2n1Cc1ccccc1)NO
Query: Which is greater in melting point, the first item I or the second item II ? Write down the label attached to your selection.
Result: I
(I: 167 °C, II: 97 °C)
